From: the supplement of paper PMC11316812

Kindly supply the reported percentage of EdU-negative values for the records listed here.
- Tested on: MCF7
- assay method text: percentage of EdU-negative (G0-arrested) nuclei per well, 72 h; higher = more G0 arrest;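 note: secreted proteins added to cultured cells, EdU pulse at the end, nuclei found by Hoechst imaging, EdU status from nuclear versus surrounding ring intensity ratio, PBS as neutral control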
- condition info: protein concentration 0.225 µM; reference: sequence is the full UniProt precursor, the tested protein was the secreted form or ectodomain
Quick note: give the figure in %, leave out the unit.

Suppose we examine the sequence `MVWKWMPLLLLLVCVATMCSAQDRTDLLNVCMDAKHHKTKPGPEDKLHDQCSPWKKNACCTASTSQELHKDTSRLYNFNWDHCGKMEPACKRHFIQDTCLYECSPNLGPWIQQVNQSWRKERFLDVPLCKEDCQRWWEDCHTSHTCKSNWHRGWDWTSGVNKCPAGALCRTFESYFPTPAALCEGLWSHSYKVSNYSRGSGRCIQMWFDSAQGNPNEEVARFYAAAMHVNAGEMLHGTGGLLLSLALMLQLWLLG` ; what percentage of EdU-negative value has been reported?
27.6

// query percentage of EdU-negative value for entry `MSSAARSRLTRATRQEMLFLALLLLPVVVAFARAEAEEDGDLQCLCVKTTSQVRPRHITSLEVIKAGPHCPTAQLIATLKNGRKICLDLQALLYKKIIKEHLES`
24.9

---

- Test system: hTERT-HMEC
- assay method text: percentage of EdU-negative (G0-arrested) nuclei per well, 72 h; higher = more G0 arrest
- condition info: protein concentration 0.225 µM; reference: sequence is the full UniProt precursor, the tested protein was the secreted form or ectodomain
Please use 1 (yes) whenever percentage of EdU-negative is not below 6%, and 0 (no) whenever it is.

Please tell me: is the sequence `MDPRLPAWALVLLGPALVFALGPAPTPEMREKLCGHHFVRALVRVCGGPRWSTEARRPATGGDRELLQWLERRHLLHGLVADSNLTLGPGLQPLPQTSHHHRHHRAAATNPARYCCLSGCTQQDLLTLCPY` at or over 6% in terms of percentage of EdU-negative?
0 (no)

Does `MAVFKTTLWRLISGTLGIICLSLMSTLGILLKNSFTKLSIEPAFTPGPNIELQKDSDCCSCQEKWVGYRCNCYFISSEQKTWNESRHLCASQKSSLLQLQNTDELDFMSSSQQFYWIGLSYSEEHTAWLWENGSALSQYLFPSFETFNTKNCIAYNPNGNALDESCEDKNRYICKQQLI` have a reported percentage of EdU-negative of at least 6%?
0 (no)

Test whether the sequence MKPVLPLQFLVVFCLALQLVPGSPKQRVLKYILEPPPCISAPENCTHLCTMQEDCEKGFQCCSSFCGIVCSSETFQKRNRIKHKGSEVIMPAN [Q8IUB5] records percentage of EdU-negative of 6% or higher.
0 (no)

Evaluate MKPALLEVMRMNRICRMVLATCLGSFILVIFYFQSMLHPVMRRNPFGVDICCRKGSRSPLQELYNPIQLELSNTAVLHQMRRDQVTDTCRANSATSRKRRVLTPNDLKHLVVDEDHELIYCYVPKVACTNWKRLMMVLTGRGKYSDPMEIPANEAHVSANLKTLNQYSIPEINHRLKSYMKFLFVREPFERLVSAYRNKFTQKYNISFHKRYGTKIIKRQRKNATQEALRKGDDVKFEEFVAYLIDPHTQREEPFNEHWQTVYSLCHPCHIHYDLVGKYETLEEDSNYVLQLAGVGSYLKFPTYAKSTRTTDEMTTEFFQNISSEHQTQLYEVYKLDFLMFNYSVPSYLKLE [Q9NPF2] : percentage of EdU-negative at minimum 6%?
1 (yes)

Say whether `MAASRWARKAVVLLCASDLLLLLLLLPPPGSCAAEGSPGTPDESTPPPRKKKKDIRDYNDADMARLLEQWEKDDDIEEGDLPEHKRPSAPVDFSKIDPSKPESILKMTKKGKTLMMFVTVSGSPTEKETEEITSLWQGSLFNANYDVQRFIVGSDRAIFMLRDGSYAWEIKDFLVGQDRCADVTLEGQVYPGKGGGSKEKNKTKQDKGKKKKEGDLKSRSSKEENRAGNKREDL` shows percentage of EdU-negative of 6% or more.
1 (yes)

In plain terms: is recorded percentage of EdU-negative at least 6% for `MWDLVLSIALSVGCTGAVPLIQSRIVGGWECEKHSQPWQVAVYSHGWAHCGGVLVHPQWVLTAAHCLKKNSQVWLGRHNLFEPEDTGQRVPVSHSFPHPLYNMSLLKHQSLRPDEDSSHDLMLLRLSEPAKITDVVKVLGLPTQEPALGTTCYASGWGSIEPEEFLRPRSLQCVSLHLLSNDMCARAYSEKVTEFMLCAGLWTGGKDTCGGDSGGPLVCNGVLQGITSWGPEPCALPEKPAVYTKVVHYRKWIKDTIAANP` ?
0 (no)

---

- Test system: hTERT-HMEC
- assay method text: percentage of EdU-negative (G0-arrested) nuclei per well, 72 h; higher = more G0 arrest
- condition info: protein concentration 0.0225 µM; reference: sequence is the full UniProt precursor, the tested protein was the secreted form or ectodomain
Would you mind telling me the reported percentage of EdU-negative of each entry?
# value in %; strip the unit string

Which value of percentage of EdU-negative has been reported for `MAHRPPSPALASVLLALLLSGAARAAEIVGGHEAQPHSRPYMASLQMRGNPGSHFCGGTLIHPSFVLTAAHCLRDIPQRLVNVVLGAHNVRTQEPTQQHFSVAQVFLNNYDAENKLNDVLLIQLSSPANLSASVATVQLPQQDQPVPHGTQCLAMGWGRVGAHDPPAQVLQELNVTVVTFFCRPHNICTFVPRRKAGICFGDSGGPLICDGIIQGIDSFVIWGCATRLFPDFFTRVALYVDWIRSTLRRVEAKGRP` in the records?
4.55

Recorded percentage of EdU-negative of `MMLRVLVGAVLPAMLLAAPPPINKLALFPDKSAWCEAKNITQIVGHSGCEAKSIQNRACLGQCFSYSVPNTFPQSTESLVHCDSCMPAQSMWEIVTLECPGHEEVPRVDKLVEKILHCSCQACGKEPSHEGLSVYVQGEDGPGSQPGTHPHPHPHPHPGGQTPEPEDPPGAPHTEEEGAED` , please.
5.79

Reported percentage of EdU-negative for `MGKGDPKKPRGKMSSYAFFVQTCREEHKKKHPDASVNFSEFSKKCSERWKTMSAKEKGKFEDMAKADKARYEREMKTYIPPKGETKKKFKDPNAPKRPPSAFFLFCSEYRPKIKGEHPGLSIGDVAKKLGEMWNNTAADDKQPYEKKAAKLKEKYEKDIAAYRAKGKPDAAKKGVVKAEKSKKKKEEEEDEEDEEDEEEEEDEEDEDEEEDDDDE` : what is it?
5.16

---

What percentage of EdU-negative was measured for each of the following?
- System: MCF7
- assay method text: percentage of EdU-negative (G0-arrested) nuclei per well, 72 h; higher = more G0 arrest
- condition info: protein concentration 0.03125 µM; reference: sequence is the full UniProt precursor, the tested protein was the secreted form or ectodomain
Your answer should be a plain number; it is taken to be in %.

Sample `MRRMWATQGLAVALALSVLPGSRALRPGDCEVCISYLGRFYQDLKDRDVTFSPATIENELIKFCREARGKENRLCYYIGATDDAATKIINEVSKPLAHHIPVEKICEKLKKKDSQICELKYDKQIDLSTVDLKKLRVKELKKILDDWGETCKGCAEKSDYIRKINELMPKYAPKAASARTDL` — what was its percentage of EdU-negative?
25.9

Looking for the measured percentage of EdU-negative of `MRPTLLWSLLLLLGVFAAAAAAPPDPLSQLPAPQHPKIRLYNAEQVLSWEPVALSNSTRPVVYQVQFKYTDSKWFTADIMSIGVNCTQITATECDFTAASPSAGFPMDFNVTLRLRAELGALHSAWVTMPWFQHYRNVTVGPPENIEVTPGEGSLIIRFSSPFDIADTSTAFFCYYVHYWEKGGIQQVKGPFRSNSISLDNLKPSRVYCLQVQAQLLWNKSNIFRVGHLSNISCYETMADASTELQQVILISVGTFSLLSVLAGACFFLVLKYRGLIKYWFHTPPSIPLQIEEYLKDPTQPILEALDKDSSPKDDVWDSVSIISFPEKEQEDVLQTL` , can you help?
27.1

// percentage of EdU-negative lookup, key: MAPGSRTSLLLAFALLCLPWLQEAGAVQTVPLSRLFDHAMLQAHRAHQLAIDTYQEFEETYIPKDQKYSFLHDSQTSFCFSDSIPTPSNMEETQQKSNLELLRISLLLIESWLEPVRFLRSMFANNLVYDTSDSDDYHLLKDLEEGIQTLMGRLEDGSRRTGQILKQTYSKFDTNSHNHDALLKNYGLLYCFRKDMDKVETFLRMVQCRSVEGSCGF [P0DML2]
28.3

I'd like to know its percentage of EdU-negative. The sequence in question is `MEMFQGLLLLLLLSMGGTWASREMLRPRCRPINATLAVEKEGCPVCITVNTTICAGYCPTMTRVLQGVLPALPQVVCNYRDVRFESIRLPGCPRGVNPVVSYAVALSCQCALCRRSTTDCGGPKDHPLTCDDPRFQASSSSKAPPPSLPSPSRLPGPSDTPILPQ`
24.4

Consider the sequence MKTLFLGVTLGLAAALSFTLEEEDITGTWYVKAMVVDKDFPEDRRPRKVSPVKVTALGGGNLEATFTFMREDRCIQKKILMRKTEEPGKFSAYGGRKLIYLQELPGTDDYVFYCKDQRRGGLRYMGKLVGRNPNTNLEALEEFKKLVQHKGLSEEDIFMPLQTGSCVLEH [Q9NY56] and give its measured percentage of EdU-negative.
25.1

Find the recorded percentage of EdU-negative belonging to `MTCKMSQLERNIETIINTFHQYSVKLGHPDTLNQGEFKELVRKDLQNFLKKENKNEKVIEHIMEDLDTNADKQLSFEEFIMLMARLTWASHEKMHEGDEGPGHHHKPGLGEGTP` and report it.
26

Please look up its percentage of EdU-negative: MTLLPGLLFLTWLHTCLAHHDPSLRGHPHSHGTPHCYSAEELPLGQAPPHLLARGAKWGQALPVALVSSLEAASHRGRHERPSATTQCPVLRPEEVLEADTHQRSISPWRYRVDTDEDRYPQKLAFAECLCRGCIDARTGRETAALNSVRLLQSLLVLRRRPCSRDGSGLPTPGAFAFHTEFIHVPVGCTCVLPRSV [Q9P0M4]
26.7

Find the recorded percentage of EdU-negative belonging to `MLSCRLQCALAALSIVLALGCVTGAPSDPRLRQFLQKSLAAAAGKQELAKYFLAELLSEPNQTENDALEPEDLSQAAEQDEMRLELQRSANSNPAMAPRERKAGCKNFFWKTFTSC` and report it.
25.9
